- STUDY TARGET: Neuropeptide Y receptor type 1 (Homo sapiens, UniProt P25929)
- Sequence (P25929 whole entry): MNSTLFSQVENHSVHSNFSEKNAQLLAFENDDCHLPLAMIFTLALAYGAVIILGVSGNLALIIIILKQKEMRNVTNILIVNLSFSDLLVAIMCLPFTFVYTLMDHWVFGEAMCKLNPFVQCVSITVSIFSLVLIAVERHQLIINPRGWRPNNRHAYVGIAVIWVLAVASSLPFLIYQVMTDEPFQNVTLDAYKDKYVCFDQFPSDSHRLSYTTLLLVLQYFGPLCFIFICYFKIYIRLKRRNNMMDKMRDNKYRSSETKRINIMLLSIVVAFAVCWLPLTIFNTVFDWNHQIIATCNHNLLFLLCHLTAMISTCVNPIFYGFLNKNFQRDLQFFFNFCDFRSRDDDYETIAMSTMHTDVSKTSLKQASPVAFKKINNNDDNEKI
- TEST DETAILS: Affinity against Neuropeptide Y receptor Y1 in SK-N-MC cell line
- Type: cell-based
Where a SMILES comes first, the peptide text is derived from it. [ ]: non-standard residue; d: D form. The star is where a group is joined. X2 = N=C(N)NCCC[C@@H](CN[C@@H](CCC(N)=O)C(=O)N[C@@H](CCCNC(=N)N)C(=O)N[C@@H](Cc1ccc(O)cc1)C(N)=O)N*; Bip = N[C@@H](Cc1ccc(-c2ccccc2)cc1)C(=O)O
VALUE KIND: pIC50
Schema: pIC50 number; meaning minus log10 of the concentration expressed in molar units.

CC(=O)N[C@@H](C)C(=O)N[C@@H](CO)C(=O)N[C@@H](CC(C)C)C(=O)N[C@@H](CCCN=C(N)N)C(=O)N[C@@H](Cc1c[nH]cn1)C(=O)N[C@@H](Cc1ccc(-c2ccccc2)cc1)C(=O)N[C@@H](CC(C)C)C(=O)N[C@@H](CC(N)=O)C(=O)N[C@@H](CC(C)C)C(=O)N[C@H](C(=O)N[C@H](C(=O)N[C@@H](CCCN=C(N)N)C(=O)N[C@@H](CCC(N)=O)C(=O)N[C@@H](CCCN=C(N)N)C(=O)N[C@@H](Cc1ccc(O)cc1)C(N)=O)[C@@H](C)O)C(C)C (Ac-ASLRH[Bip]LNLVTRQRY-NH2)    6.55

Next compound, please.
## Input I would be grateful if you could share the reported pIC50 for CC(=O)N[C@@H](C)C(=O)N[C@@H](CO)C(=O)N[C@@H](CC(C)C)C(=O)N[C@@H](CCCNC(=N)N)C(=O)N[C@@H](Cc1cnc[nH]1)C(=O)N[C@@H](Cc1ccc(O)cc1)C(=O)N[C@@H](CC(C)C)C(=O)N[C@@H](CC(N)=O)C(=O)N[C@@H](CC(C)C)C(=O)N[C@H](C(=O)N[C@H](C(=O)N[C@@H](CCCNC(=N)N)CN[C@@H](CCC(N)=O)C(=O)N[C@@H](CCCNC(=N)N)C(=O)N[C@@H](Cc1ccc(O)cc1)C(N)=O)[C@@H](C)O)C(C)C (Ac-ASLRHYLNLVT-X2) .
## Output 5.90

Measured values drawn from ChEMBL document CHEMBL1133640 for this set.
